Recorded TGI values for a group of compounds are listed next.
# Test system: UO-31 renal
# MEASUREMENT_NOTES: NCI tumour cell line growth inhibition, 48 h
Report the figure in µM without appending any unit label.

Sample records with TGI:
COMPOUND | SYSTEM_UNDER_TEST | UNIT_ABBREVIATION | TGI
C[C@]12CC[C@@H]3c4ccc(O)c([N+](=O)[O-])c4CC[C@H]3[C@@H]1CC[C@@H]2NS(=O)(=O)c1ccc(C(F)(F)F)cc1 | UO-31 renal | µM | 3.19
CC(=O)OC1CC2(O)C(CCC3(C)C(c4ccc(=O)oc4)CCC32O)C2(C)C1=CC(O)C1OC12 (centres undefined) | UO-31 renal | µM | 0.323
O=C(Nc1ccc(OC(F)(F)F)cc1)c1sccc1NCc1ccnc2ccccc12 | UO-31 renal | µM | 26.1

Proceeding to the next compound to report its TGI.
Task item: Consider the compound COC(=O)C1=C(OC(=O)c2ccc(Cl)cc2)C(C(=O)OC)[C@@]2(O)[C@@H](C(=O)OC)C(c3ccccc3C(F)(F)F)C[C@@H]1[C@@H]2C(=O)OC (some centres undefined) . State its measured TGI.
Reply: 31.6

---

# System: OVCAR-8 ovarian
# MEASUREMENT_NOTES: NCI tumour cell line growth inhibition, 48 h
REPORTED_METRIC: GI50

Check out these entries, answers already filled in.
MOLECULE | SYSTEM_UNDER_TEST | GI50
CC(C)N(C(C)C)[PH+]1O[PH+](N(C(C)C)C(C)C)O[PH+](N(C(C)C)C(C)C)O[PH+](N(C(C)C)C(C)C)O[PH+](N(C(C)C)C(C)C)O1.[C-]#[O+].[C-]#[O+].[C-]#[O+].[C-]#[O+].[C-]#[O+].[C-]#[O+].[C-]#[O+].[Cr].[Cr] (configuration not stated) | OVCAR-8 ovarian | > 100000 nM
CC[C@H](C)[C@H](NC(=O)c1cnccn1)C(=O)N(C)[C@H](C[C@@H](OC(C)=O)c1nc(C(=O)N[C@@H](Cc2ccccc2)C[C@H](C)C(=O)OC)cs1)C(C)C | OVCAR-8 ovarian | 1680 nM
CC[O-].CC[O-].O=C1C(=C([O-])c2ccccc2)C(=O)c2ccccc21.O=C1C(=C([O-])c2ccccc2)C(=O)c2ccccc21.[Ti+4] | OVCAR-8 ovarian | 92700 nM
O=C1/C(=C/c2ccc(Cl)cc2)CCCc2ccc(F)cc21 | OVCAR-8 ovarian | 22800 nM

Task item: Please supply the value of reported GI50 for the item `COc1cc(-c2csc(NC(=O)c3cc(C(F)(F)F)cc(C(F)(F)F)c3)n2)cc(OC)c1OC`
Reply: 2770 nM

Task item: Indicate the recorded GI50 value for this molecule: `COc1ccc(C(=O)N2c3ccccc3Sc3ccccc32)c(F)c1`
Reply: 2200 nM

Task item: Please supply the value of reported GI50 for the item COc1cc(/C=C2\CN(C)CC3=C2Nc2nc(SC)[nH]c(=O)c2C3c2cc(OC)c(OC)c(OC)c2)cc(OC)c1OC (configuration not stated)
Reply: 2890 nM

---

Recorded TGI values for a group of compounds are listed next.
# System: SF-295 CNS
# MEASUREMENT_NOTES: NCI tumour cell line growth inhibition, 48 h

COMPOUND | SYSTEM_UNDER_TEST | REPORTED_METRIC | RECORDED_VALUE
COc1cc(/C=C2\CN(C)CC3=C2Nc2nc(SC)[nH]c(=O)c2C3c2cc(OC)c(OC)c(OC)c2)cc(OC)c1OC (stereo not drawn) | SF-295 CNS | TGI | 5.47 µM
O=C1CC(c2ccccc2Cl)C2(C(=O)NC(=O)NC2=O)C(c2ccccc2Cl)C1 (stereo not drawn) | SF-295 CNS | TGI | > 100 µM
COc1ccc2c(c1)-c1c(c3cc(OC)ccc3n1CCN(C)C)CC2 | SF-295 CNS | TGI | 34.3 µM
C[n+]1c(-c2ccc(NC(=O)c3ccc(C(=O)Nc4ccc(-c5cn6ccccc6[n+]5C)cc4)cc3)cc2)cn2ccccc21 | SF-295 CNS | TGI | > 100 µM
COc1ccc(C2C(Cl)C(=O)N2n2cnc3ccccc3c2=O)cc1OC (stereo not drawn) | SF-295 CNS | TGI | > 100 µM
C[C@]12CC[C@@H]3c4ccc(O)c([N+](=O)[O-])c4CC[C@H]3[C@@H]1CC[C@@H]2NS(=O)(=O)c1ccc(C(F)(F)F)cc1 | SF-295 CNS | TGI | 10.6 µM

Task item: Return reported TGI. Input compound: `O=C1/C(=C/c2ccc(Cl)cc2)CCCc2ccc(F)cc21`
Reply: > 100 µM

Task item: Give the value of TGI reported for the following: `CC(=O)OCC(=O)O[C@@H]1[C@H]2[C@@H](OC(=O)c3ccccc3)[C@@H](C)C[C@]2(O)[C@H](OC(C)=O)[C@@]2(C)C[C@]1(OC(C)=O)C[C@H]1C(=O)C(C)(C)[C@@H](OC(C)=O)[C@@H]12`
Reply: > 25 µM

Task item: Return reported TGI. Input compound: `CC12CC3(C)CC(C)(C1)CC(N=[N+]=[N-])(C2)C3`
Reply: > 100 µM

---

// TGI lookup, one value per entry
# System: SW-620 colon
# MEASUREMENT_NOTES: NCI tumour cell line growth inhibition, 48 h

Solved cases (5 shown):
COMPOUND | TGI
COC(=O)c1ccc2c(c1)C(NC(C)=O)CCc1cc(OC)c(OC)c(OC)c1-2 (stereo not given) | > 100 µM
CC(CO)[C@H]1OC(=O)C=C2[C@@]13O[C@@H]3[C@H]1OC(=O)[C@@]3(C)[C@H]4O[C@H]4C[C@@]2(C)[C@@H]13 (stereo not given in full) | > 100 µM
COC(=O)c1nc(NN)[nH]c(=O)c1CCCCCc1c(C(=O)OC)[nH]c(NN)cc1=O | > 100 µM
CNC(=O)Nc1ccc(-c2nc(N3CCOCC3)nc3c2cnn3C2CCOCC2)cc1 | > 100 µM
CC1=C(C(=O)NC2CCCCC2)CC(C(=O)NC2CCCCC2)=C(C)N1 | > 100 µM

Task item: Identify TGI associated with the compound `NC(N)=NS(=O)(=O)c1ccc(NC(=O)c2cccc3c(NNc4ccc(S(N)(=O)=O)cc4)c4ccccc4nc23)cc1`
Reply: > 100 µM

Task item: Tell me its TGI given `Cc1ccc(S(=O)(=O)c2c(O)c3ccc(O)c(C)c3oc2=O)cc1` as the entry.
Reply: > 100 µM

Task item: Please give the documented TGI of COc1cc2c3cc1Oc1c(OC)c(OC)cc4c1C(Cc1ccc(O)c(c1)Oc1ccc(cc1)CC3N(C)CC2)CN(C)C4 (stereo not given)
Reply: 30 µM

Task item: Identify TGI associated with the compound CCCCCCCCCCCCNC(=O)CCC(NC(=O)c1ccc(N(C)Cc2cnc3nc(N)nc(N)c3n2)cc1)C(=O)NCCCCCCCCCCCC (stereo not given)
Reply: > 100 µM

Task item: State its TGI: CCc1ccccc1NC(=O)C(=O)C(C(=O)c1ccc(OC)cc1)c1ccc(OC)cc1 (stereo not given)
Reply: > 100 µM

Task item: Give TGI for the following compound: CC(=O)OC1CC2(O)C(CCC3(C)C(c4ccc(=O)oc4)CCC32O)C2(C)C1=CC(O)C1OC12 (stereo not given)
Reply: 0.144 µM

Task item: Note TGI for the compound shown: `NCCN(CCN(C(=O)Nc1ccccc1)c1ccccc1)C(=O)Nc1ccccc1`
Reply: 48.3 µM

---

# System: SK-OV-3 ovarian
# MEASUREMENT_NOTES: NCI tumour cell line growth inhibition, 48 h; in the data active means GI50 below about 0.43 µM; inactive means the rest
Could you please pick one outcome from this set? active, inactive

Solved cases (3 shown):
MOLECULE | CLASSIFICATION
CSc1ccc(C2=Nn3c(nnc3-c3ccc(F)c(Cl)c3)SC2)cc1 | inactive
CCN(c1ccc(CO)c(Cl)c1)C(C)c1ccc(F)cc1 (stereo not given) | inactive
CCN(CCCCCCCCCCN1CC(=O)N(CCCCCCCCCCN(CC)Cc2ccccc2OC)CC1=O)Cc1ccccc1OC | inactive

Task item: Outcome logged for `Cc1cccc(NC(=O)c2sc3nc4c(cc3c2N)CCCC4)c1C` in this assay:
Reply: inactive

Task item: What was the test verdict on `COc1ccc(Cl)cc1Nc1nc(C(F)(F)F)ccc1C(=O)NN` ?
Reply: inactive

Task item: Given CC(C)N(C(C)C)[PH+]1O[PH+](N(C(C)C)C(C)C)O[PH+](N(C(C)C)C(C)C)O[PH+](N(C(C)C)C(C)C)O[PH+](N(C(C)C)C(C)C)O1.[C-]#[O+].[C-]#[O+].[C-]#[O+].[C-]#[O+].[C-]#[O+].[C-]#[O+].[C-]#[O+].[Cr].[Cr] (stereo not given) , state the outcome it received in this test.
Reply: inactive

Task item: Any idea what this test logged for `CNC(=O)Nc1ccc(-c2nc(N3CCOCC3)nc3c2cnn3C2CCOCC2)cc1` ?
Reply: active

Task item: Outcome? `COc1ccc(C(=O)N2c3ccccc3Sc3ccccc32)c(F)c1`
Reply: inactive

Task item: Call for entry `Fc1cccc(COc2ccc(Nc3ncnc4sc(-c5ccco5)cc34)cc2Cl)c1` :
Reply: inactive

Task item: Tell me the recorded outcome of this test for `N=C(N)c1ccc(-c2ccc(-c3ccc(Cl)cc3Cl)o2)cc1` .
Reply: inactive

These entries and their values trace back to PubChem BioAssay (NCI).
